Give Ki for every item shown.
target: HIV-1 protease (Human immunodeficiency virus type 1 group M subtype B); assay: biochemical; conditions: read-out: HIV-1 FITC KI
Response body: numeric value in nM, unit text excluded.

Report Ki for O=c1oc2c(c(O)c1C(c1cccc(NS(=O)(=O)Cc3ccccc3)c1)C1CC1)CCCCCC2 (centres unmarked) [Example 321] please.
13.2

Fill in: Ki of CN(C)S(=O)(=O)Nc1cccc(C(c2c(O)c3c(oc2=O)CCCCCC3)C2CC2)c1 (centres unmarked) [Example 398] is ___
41.5

Value lookup for Ki; key = CCCC(=O)Nc1cccc(C(c2c(O)c3c(oc2=O)CCCCCC3)C2CC2)c1 (centres unmarked) [Example 209]
24.1

Look up Ki for this molecule: O=c1oc2c(c(O)c1C(c1cccc(NS(=O)(=O)c3ccc(CBr)cc3)c1)C1CC1)CCCCCC2 (centres unmarked) [Example 403]
5

Report Ki for Cn1cnc(S(=O)(=O)Nc2cccc([C@@H](c3c(O)c4c(oc3=O)CCCCCC4)C3CC3)c2)c1 [Example 254] please.
0.65

Give the measured Ki of CCc1ccc(S(=O)(=O)Nc2cccc(C(c3c(O)c4c(oc3=O)CCCCCC4)C3CC3)c2)cc1 (centres unmarked) [Example 341] .
5

Which Ki value is on record for CCCS(=O)(=O)Nc1cccc(C(c2c(O)c3c(oc2=O)CCCCCC3)C2CC2)c1 (centres unmarked) [Example 324] ?
4

Given O=c1oc2c(c(O)c1C(c1ccccc1)C1CC1)CCCCC2C(O)C1CC1 (centres unmarked) [Example 195] , state its recorded Ki.
22
